- Test system: CRL-7250
- EXPERIMENT_DESCRIPTION: Cytotoxic Profiling of Annotated Libraries Using Quantitative High-Throughput Screening (AID 1296008); also: % is scaled to controls: 0 for no effect and ±100 for the full control effect; nearly all actives have a fitted effect of over 60% in size
- RUN_PARAMETERS: Five cell lines viability, CellTiter-Glo ATP luminescence, 48-72 h; stronger effect = lower value
Results filed as inconclusive are left out.
ASSAY_METRIC: max response (%)
Numbers only, in %.

MOLECULE	UNITS_OF_MEASURE	READOUT_NUMBER
CC1=C(C)C(=O)OC(C(C)(O)C2CCC3C4CC=C5CC(OC6OC(COC7OC(CO)C(O)C(O)C7O)C(O)C(O)C6O)CC(O)C5(C)C4CCC32C)C1 (stereo not drawn)	%	-12.7

Consider the following items and state reported max response for each.
1. C=C1CCC2C(OC(=O)C2(O)COC(C)=O)C2C(=C)C(O)CC12 (stereo not drawn)
2. CC1=C2C(=O)O[C@@H](c3ccoc3)[C@]2(C)CCC1

(A)
1: -7.9; 2: -4.96

====

- System: PA-1
- EXPERIMENT_DESCRIPTION: Primary qHTS to identify gynecologic anti-cancer compounds using libraries of approved drugs and bioactive compounds (AID 1345084); also: % is scaled to controls: 0 for no effect and ±100 for the full control effect; nearly all actives have a fitted effect of over 55% in size
- RUN_PARAMETERS: Gynecologic cancer cell panel viability, ATPlite luminescence, 48 h; series mostly up to 57.5 µM
Records with an inconclusive call do not appear. Calls of active or inactive are those of the source. Calls follow the shape of the dose curve; as a rule, active = well fitted cell-killing curve with a large enough effect; inconclusive = small, poorly fitted or top-dose-only effect, or effect the other way; inactive = flat fitted curve, though single readings scatter.
ASSAY_METRIC: activity change, negative = cytotoxicity

# example entries with known answers
MOLECULE	activity change, negative = cytotoxicity
CCOC(=O)c1c(C)nn(-c2cccc([N+](=O)[O-])c2)c1C	inactive
CC1CCCC2OC2C(=O)c2c(O)cc(O)cc2CC(=O)O1 (stereo not drawn)	inactive
C/C=C(\C)C(=O)O[C@@H](C)[C@H]1CC[C@]2(O)C3CCC4C[C@@H](OC5CC(OC)C(OC6CC(OC)C(OC7CC(OC)C(OC8OC(C)C(OC9OC(CO)C(O)C(O)C9O)C(OC)C8O)C(C)O7)C(C)O6)C(C)O5)CC[C@]4(C)C3[C@H](O)[C@@H](O)[C@]12C (stereo partly drawn)	3.34% [at 6.55 µM] (inactive)
CCCCNC(=O)[C@@H]1Cc2ccccc2N1C(=O)[C@@H](N)CC	inactive
COc1ccccc1CC(C(=O)O)N(C)C(=O)c1ccccc1 (stereo not drawn)	inactive
OCCc1ccc(O[C@@H]2O[C@H](CO)[C@@H](O)[C@H](O)[C@H]2O)c(O)c1	inactive

Items follow; give activity change, negative = cytotoxicity for each.
1. COCCCNCC1COc2ccccc2O1 (stereo not drawn)
2. C[C@@H]1C(=O)O[C@H]2CC34[C@H]5C[C@@H](C(C)(C)C)C36[C@@H](OC(=O)[C@@H]6O)OC4(C(=O)O5)[C@]21O (stereo partly drawn)

(A)
["inactive", "inactive"]

====

I'd be grateful if you could share measured remaining parasite growth % (stronger effect = lower value) for these entries.
- EXPERIMENT_DESCRIPTION: qHTS profiling for inhibitors of Plasmodium falciparum (3D7) proliferation (AID 743322);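 also: infected erythrocytes exposed to compound for 72 h before lysis; 100% = DMSO vehicle wells and 0% = 0.29 µM artemisinin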
- RUN_PARAMETERS: P. falciparum 3D7 proliferation; at 28.7 µM (top of the series) unless noted
One number for each entry, in % [at 57.5 µM].

MOLECULE	UNITS_OF_MEASURE	READOUT_NUMBER
CN(NC(=O)CC(=O)NN(C)C(=S)c1ccccc1)C(=S)c1ccccc1	% [at 57.5 µM]	2.19

(Q) For the molecule CCC1(Cc2ccc(N)cc2)CCC(=O)NC1=O (stereo not drawn) , give its reported remaining parasite growth % (stronger effect = lower value).
(A) 99.6
